Assayed system: SRPK1 (Homo sapiens, UniProt Q96SB4)
Sequence (Q96SB4 whole entry): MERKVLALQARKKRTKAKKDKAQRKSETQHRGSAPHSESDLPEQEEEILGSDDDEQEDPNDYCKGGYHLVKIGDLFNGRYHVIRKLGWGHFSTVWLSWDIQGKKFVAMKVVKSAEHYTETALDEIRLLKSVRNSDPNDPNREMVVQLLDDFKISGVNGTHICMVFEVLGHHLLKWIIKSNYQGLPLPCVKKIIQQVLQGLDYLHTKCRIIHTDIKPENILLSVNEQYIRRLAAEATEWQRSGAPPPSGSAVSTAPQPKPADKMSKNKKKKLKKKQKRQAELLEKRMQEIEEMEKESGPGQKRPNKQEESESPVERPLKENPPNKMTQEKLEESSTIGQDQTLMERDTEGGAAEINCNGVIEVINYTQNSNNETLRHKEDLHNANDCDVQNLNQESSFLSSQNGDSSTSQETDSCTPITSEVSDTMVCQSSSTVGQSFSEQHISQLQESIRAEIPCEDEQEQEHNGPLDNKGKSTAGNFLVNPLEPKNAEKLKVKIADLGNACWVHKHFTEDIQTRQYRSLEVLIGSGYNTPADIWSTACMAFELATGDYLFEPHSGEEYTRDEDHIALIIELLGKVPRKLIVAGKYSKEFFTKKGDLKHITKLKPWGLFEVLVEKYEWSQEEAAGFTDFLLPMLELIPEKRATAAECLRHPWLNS
Measurement description: SRPK1 assay, Method 1 (ADP-Glo luminescence)
Assay type: biochemical
Settings: Method 1 (no asterisk): substrate Human SRSF1/SF2, 25° C. for 90 min, test compounds 30 μM top, 3-fold, duplicate
Below, each entry is listed alongside its reported IC50.

{"Compound": "C[C@H]1C[C@H](O)CCN1c1ncc(C(F)(F)F)cc1NC(=O)c1ccc(C2CCOCC2)o1 [Compound 076]", "Inequality symbol": "=", "IC50, nM": 14.2}
{"Compound": "O=C(Nc1cc(C(F)(F)F)cnc1-c1ccccc1)c1ccc(C2CCOCC2)o1 [Compound 008]", "Inequality symbol": ">", "IC50, nM": 30000}
{"Compound": "C[C@H]1C[C@@H](O)CCN1c1ncc(C(F)(F)F)cc1NC(=O)c1ccc(C2CCOCC2)o1 [Compound 075]", "Inequality symbol": "=", "IC50, nM": 13.1}
{"Compound": "O=C(Nc1cc(C(F)(F)F)cnc1N1CCC(O)CC1)c1ccc(C(F)(F)F)cn1 [Compound 077]", "Inequality symbol": ">", "IC50, nM": 30000}
{"Compound": "O=C(Nc1cc(C2CC2)cnc1N1CCC(O)CC1)c1ccc(-c2ccnc(F)c2)o1 [Compound 023]", "Inequality symbol": "=", "IC50, nM": 55.1}
{"Compound": "O=C(Nc1cc(C(F)(F)F)cnc1N1CCC(O)CC1)c1ccccn1 [Compound 047]", "Inequality symbol": "=", "IC50, nM": 260}
{"Compound": "C[C@@H]1C[C@H](O)CCN1c1ncc(C(F)(F)F)cc1NC(=O)c1ccc(Br)o1 [Compound 109]", "Inequality symbol": "=", "IC50, nM": 746}
{"Compound": "CN(C)C(=O)C1(C)CCN(c2ncc(C(F)(F)F)cc2NC(=O)c2ccc(C3CCOCC3)o2)CC1 [Compound 045]", "Inequality symbol": "=", "IC50, nM": 84.5}

* * *

Assayed system: SRPK1 (Homo sapiens)
Measurement description: SRPK1 assay, Method 1 (ADP-Glo luminescence)
Format: biochemical
Settings: Method 1 (no asterisk): substrate Human SRSF1/SF2, 25° C. for 90 min, test compounds 30 μM top, 3-fold, duplicate
Measurement type: IC50

{"Smiles structure": "O=C(Nc1cc(C(F)(F)F)cnc1N1CCC(O)CC1)c1cccnc1", "Measurement type": "IC50", "Endpoint result": "> 30 µM"}
{"Smiles structure": "O=C(Nc1cc(C(F)(F)F)cnc1N1CCCCC1)c1ccc(C2CCOCC2)o1", "Measurement type": "IC50", "Endpoint result": "> 30 µM"}
{"Smiles structure": "O=C(Nc1cc(C2CC2)cnc1N1CCC(O)CC1)c1ccc(C2CCOCC2)o1", "Measurement type": "IC50", "Endpoint result": "0.0309 µM"}
{"Smiles structure": "O=C(Nc1cc(C2CC2)cnc1N1CCC(O)CC1)c1ccc(-c2cn[nH]c2)cn1", "Measurement type": "IC50", "Endpoint result": "> 30 µM"}

* * *

Assayed system: UniProt:Q96SB4
Measurement description: SRPK1 assay, Method 1 (ADP-Glo luminescence)
Type: biochemical
Settings: Method 1 (no asterisk): substrate Human SRSF1/SF2, 25° C. for 90 min, test compounds 30 μM top, 3-fold, duplicate
Listing of entries alongside the reported IC50.

{"Compound": "Cn1cc(-c2ccc(C(=O)Nc3cc(C(F)(F)F)cnc3N3CCC(O)CC3)o2)cn1", "Value unit": "nM", "Inequality symbol": "=", "IC50": 18.5}
{"Compound": "O=C(Nc1cc(C(F)(F)F)cnc1N1CCS(=O)(=O)CC1)c1ccc(C2CCOCC2)o1", "Value unit": "nM", "Inequality symbol": ">", "IC50": 30000}
{"Compound": "O=C1CCC2(CCN(c3ncc(C(F)(F)F)cc3NC(=O)c3ccc(C4CCOCC4)o3)CC2)N1", "Value unit": "nM", "Inequality symbol": "=", "IC50": 215}
{"Compound": "O=C(Nc1cc(C2CC2)cnc1N1CCc2[nH]ncc2C1)c1ccc(-c2cn[nH]c2)o1", "Value unit": "nM", "Inequality symbol": ">", "IC50": 30000}
{"Compound": "O=C(Nc1cc(C(F)(F)F)cnc1N1CCC(O)(C(F)(F)F)CC1)c1ccc(-c2ccncc2)o1", "Value unit": "nM", "Inequality symbol": "=", "IC50": 249}
{"Compound": "NC(=O)C1CCN(c2ncc(C(F)(F)F)cc2NC(=O)c2ccc(C3CCOCC3)o2)CC1", "Value unit": "nM", "Inequality symbol": "=", "IC50": 71.7}
{"Compound": "O=C(Nc1cc(C(F)(F)F)cnc1N1CCC(O)CC1)c1cnn(C2CCOCC2)c1", "Value unit": "nM", "Inequality symbol": ">", "IC50": 30000}
{"Compound": "CC(=O)OC1CCN(c2ncc(C3CC3)cc2NC(=O)c2ccc(C3CCOCC3)o2)CC1", "Value unit": "nM", "Inequality symbol": "=", "IC50": 105}
{"Compound": "O=C(Nc1cc(C(F)(F)F)cnc1N1CCC(O)CC1)c1cc(-c2cn[nH]c2)ccn1", "Value unit": "nM", "Inequality symbol": ">", "IC50": 30000}
{"Compound": "O=C(Nc1cc(C(F)(F)F)cnc1N1CCSCC1)c1ccc(C2CCOCC2)o1", "Value unit": "nM", "Inequality symbol": ">", "IC50": 30000}
{"Compound": "O=C(Nc1cc(C(F)(F)F)cnc1N1CCC(O)CC1)c1ccc(-c2cn[nH]n2)o1", "Value unit": "nM", "Inequality symbol": "=", "IC50": 14.8}
{"Compound": "O=C(Nc1cc(C(F)(F)F)cnc1N1CCC2(CCOC2=O)CC1)c1ccc(C2CCOCC2)o1", "Value unit": "nM", "Inequality symbol": "=", "IC50": 55.5}
{"Compound": "O=C(Nc1cc(C(F)(F)F)cnc1N1CCC(O)CC1)c1ccc(-c2cncnc2)o1", "Value unit": "nM", "Inequality symbol": "=", "IC50": 13500}
{"Compound": "O=C(Nc1cc(C(F)(F)F)cnc1-c1cncnc1)c1ccc(C2CCOCC2)o1", "Value unit": "nM", "Inequality symbol": "=", "IC50": 14700}
{"Compound": "O=C(Nc1cc(C(F)(F)F)cnc1N1CCC(O)CC1)c1ccc(-c2c[nH]cn2)o1", "Value unit": "nM", "Inequality symbol": "=", "IC50": 556}
{"Compound": "O=C(Nc1cc(C(F)(F)F)cnc1N1CCC(O)C1)c1ccc(C2CCOCC2)o1 (centres unmarked)", "Value unit": "nM", "Inequality symbol": ">", "IC50": 30000}
{"Compound": "O=C(Nc1cc(C(F)(F)F)cnc1N1CCC2(CCNC2=O)CC1)c1ccc(C2CCOCC2)o1", "Value unit": "nM", "Inequality symbol": "=", "IC50": 59.3}
{"Compound": "CC1(O)CCN(c2ncc(C(F)(F)F)cc2NC(=O)c2ccc(-c3ccncc3)o2)CC1", "Value unit": "nM", "Inequality symbol": "=", "IC50": 358}
{"Compound": "COc1ccc(C(=O)Nc2cc(C(F)(F)F)cnc2N2CCC(O)CC2)nc1", "Value unit": "nM", "Inequality symbol": "=", "IC50": 1380}
{"Compound": "CN1CCC2(CCN(c3ncc(C(F)(F)F)cc3NC(=O)c3ccc(C4CCOCC4)o3)CC2)C1=O", "Value unit": "nM", "Inequality symbol": "=", "IC50": 232}
{"Compound": "Nc1cc(-c2ccc(C(=O)Nc3cc(C4CC4)cnc3N3CCc4[nH]ncc4C3)o2)ccn1", "Value unit": "nM", "Inequality symbol": ">", "IC50": 30000}
{"Compound": "O=C(Nc1cc(C(F)(F)F)cnc1N1CCC(O)CC1)c1ccc(-c2cn[nH]c2)cc1", "Value unit": "nM", "Inequality symbol": ">", "IC50": 30000}
{"Compound": "O=C(Nc1cc(C(F)(F)F)cnc1-c1ccn[nH]1)c1ccc(C2CCOCC2)o1", "Value unit": "nM", "Inequality symbol": "=", "IC50": 217}
{"Compound": "CC(=O)N1CCN(c2ncc(C(F)(F)F)cc2NC(=O)c2ccc(C3CCOCC3)o2)CC1", "Value unit": "nM", "Inequality symbol": "=", "IC50": 2050}
{"Compound": "O=C(Nc1cc(C(F)(F)F)cnc1N1CCC(O)CC1)c1ccc(C2CCOCC2)o1", "Value unit": "nM", "Inequality symbol": "=", "IC50": 41.9}
{"Compound": "CC1(C(=O)O)CCN(c2ncc(C(F)(F)F)cc2NC(=O)c2ccc(C3CCOCC3)o2)CC1", "Value unit": "nM", "Inequality symbol": "=", "IC50": 154}
{"Compound": "C[C@@H]1C[C@H](O)CCN1c1ncc(C2CC2)cc1NC(=O)c1ccc(Br)o1", "Value unit": "nM", "Inequality symbol": ">", "IC50": 30000}
{"Compound": "CN(C)C(=O)C1CCN(c2ncc(C(F)(F)F)cc2NC(=O)c2ccc(C3CCOCC3)o2)CC1", "Value unit": "nM", "Inequality symbol": "=", "IC50": 193}
{"Compound": "C[C@@H]1C[C@@H](O)CCN1c1ncc(C(F)(F)F)cc1NC(=O)c1ccc(-c2cn[nH]c2)o1", "Value unit": "nM", "Inequality symbol": ">", "IC50": 30000}
{"Compound": "O=C(Nc1cc(C(F)(F)F)cnc1N1CCC(O)CC1)c1ccc(-c2cccnc2)o1", "Value unit": "nM", "Inequality symbol": "=", "IC50": 23.5}
{"Compound": "O=C(Nc1cc(C2CC2)cnc1N1CCc2[nH]ncc2C1)c1ccc(Br)o1", "Value unit": "nM", "Inequality symbol": ">", "IC50": 30000}
{"Compound": "CNC(=O)C1(C)CCN(c2ncc(C(F)(F)F)cc2NC(=O)c2ccc(C3CCOCC3)o2)CC1", "Value unit": "nM", "Inequality symbol": "=", "IC50": 30.5}

Hey, just so you know, these numbers are from patent US20260217693A1.
